Each recorded value in this set is attributed to ChEMBL document CHEMBL1155535.

# Target System: Inhibitor of nuclear factor kappa-B kinase subunit beta (Homo sapiens)
# Sequence (O14920 whole entry): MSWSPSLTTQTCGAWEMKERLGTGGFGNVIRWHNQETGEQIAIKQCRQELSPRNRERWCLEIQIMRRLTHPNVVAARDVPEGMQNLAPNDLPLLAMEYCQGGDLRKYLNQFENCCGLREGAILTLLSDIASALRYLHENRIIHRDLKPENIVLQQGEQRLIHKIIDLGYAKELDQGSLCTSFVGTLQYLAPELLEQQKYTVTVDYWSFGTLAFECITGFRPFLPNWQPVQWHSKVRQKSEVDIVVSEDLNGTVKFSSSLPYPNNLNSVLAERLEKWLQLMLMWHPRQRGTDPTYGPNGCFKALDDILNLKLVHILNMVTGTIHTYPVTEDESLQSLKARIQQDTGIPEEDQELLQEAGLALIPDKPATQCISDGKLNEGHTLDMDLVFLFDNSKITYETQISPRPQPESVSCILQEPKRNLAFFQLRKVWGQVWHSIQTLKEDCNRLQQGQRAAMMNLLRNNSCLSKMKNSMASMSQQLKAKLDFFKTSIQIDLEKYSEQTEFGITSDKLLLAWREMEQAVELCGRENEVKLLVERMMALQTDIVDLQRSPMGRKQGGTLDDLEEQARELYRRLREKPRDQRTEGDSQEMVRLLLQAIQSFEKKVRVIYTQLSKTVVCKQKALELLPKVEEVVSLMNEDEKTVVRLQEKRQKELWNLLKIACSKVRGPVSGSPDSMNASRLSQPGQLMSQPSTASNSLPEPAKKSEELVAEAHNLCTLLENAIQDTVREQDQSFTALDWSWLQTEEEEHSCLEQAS
# Assay: Inhibition of IKK-beta expressed in human HeLa cells transfected with pNFkappaB-luciferase assessed inhibition of TNF-alpha-induced NF-kappaB expression by luciferase reporter gene assay
# Type: cell-based
Readout: IC50 (nM)

NS(=O)(=O)c1ccc(Nc2nccc(-c3ccsc3)n2)cc1 = 1700
NS(=O)(=O)c1ccc(Nc2ncc3c(n2)-c2ccccc2CCC3)cc1 = 4060
CN(C)CCNS(=O)(=O)c1ccc(Nc2nccc(-c3ccsc3)n2)cc1 = 770
COc1ccc(CC(=O)Nc2ccc3c(c2)CCc2cnc(Nc4ccc(S(N)(=O)=O)cc4)nc2-3)cc1 = 1600
NS(=O)(=O)c1ccc(Nc2ncc3c(n2)-c2ccccc2CC3)cc1 = 1430
CC(C)(C)CC(=O)Nc1ccc2c(c1)CCc1cnc(Nc3ccc(S(N)(=O)=O)cc3)nc1-2 = 1360
CC(C)C(=O)Nc1ccc2c(c1)CCc1cnc(Nc3ccc(S(N)(=O)=O)cc3)nc1-2 = 1460
CC(C)(C)CC(=O)Nc1ccc(-c2ccnc(Nc3ccc(S(N)(=O)=O)cc3)n2)cc1 = 2460
